# experimentalTarget: ABHD6 (Mus musculus, UniProt Q8R2Y0)
# Construct: Brain; from tissue; host or cells: mouse brain proteome
# Sequence (Q8R2Y0 whole entry): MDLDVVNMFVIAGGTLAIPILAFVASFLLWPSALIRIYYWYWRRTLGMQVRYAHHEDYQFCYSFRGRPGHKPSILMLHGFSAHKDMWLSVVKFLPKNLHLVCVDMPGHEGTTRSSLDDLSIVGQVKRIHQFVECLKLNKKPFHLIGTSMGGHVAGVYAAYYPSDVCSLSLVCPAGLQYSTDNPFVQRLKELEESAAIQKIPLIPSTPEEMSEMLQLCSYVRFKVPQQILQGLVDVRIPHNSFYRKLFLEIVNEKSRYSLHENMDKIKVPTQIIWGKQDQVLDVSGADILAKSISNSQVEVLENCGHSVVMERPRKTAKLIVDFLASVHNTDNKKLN
# measurementNotes: In vitro competitive activity-based protein profiling, mouse brain proteome (ABHD6)
# Format: biochemical
# reportedConditions: mouse brain proteome; concentration not given (μM)
assayReadout: % Inh ABHD6 Brain (Mouse, μM)

Use the examples below as a reference point.
>>> readoutvalue("CC(=O)N1CCC2(CC1)CCN(c1cc(Cl)ccc1CN1CCN(C(=O)OC(C(F)(F)F)C(F)(F)F)CC1)C2")
"# (# is ≤25%)"
>>> readoutvalue("CC1(OCc2cc(CN3CCC(C(=O)O)CC3)cc(C(F)(F)F)c2)CCN(C(=O)OC(C(F)(F)F)C(F)(F)F)CC1")
"### (### is ≥75%)"
>>> readoutvalue("O=C(O)C1COCCN1c1cc(C(F)(F)F)ccc1CN1CC2(CCN(C(=O)OC(C(F)(F)F)C(F)(F)F)CC2)C1 (centres unmarked)")
"# (# is ≤25%)"
>>> readoutvalue("Cc1ccc(CN2CC3(CCN(C(=O)OC(C(F)(F)F)C(F)(F)F)CC3)C2)cc1")
"### (### is ≥75%)"
>>> readoutvalue("O=C(OC(C(F)(F)F)C(F)(F)F)N1CCC2(CC1)CN(Cc1c(Cl)cccc1N1CCC3(CCOCC3)C1)C2")
"### (### is ≥75%)"

Q: For the compound CS(=O)(=O)N1CCC2(CCN(c3cc(C(F)(F)F)ccc3CN3CCN(C(=O)OC(C(F)(F)F)C(F)(F)F)CC3)C2)CC1 , what % Inh ABHD6 Brain (Mouse, μM) is on record?
Result: # (# is ≤25%)

Q: Can you handle CCN1CCCc2cccc(CN3CC4(CCN(C(=O)OC(C(F)(F)F)C(F)(F)F)CC4)C3)c21 next?
Result: ### (### is ≥75%)

Q: And for CCN1CCCc2cccc(CN3CCC4(CC3)CN(C(=O)OC(C(F)(F)F)C(F)(F)F)C4)c21 ?
Result: ### (### is ≥75%)

Q: Proceed to CN(Cc1ccc(C(F)(F)F)cc1N1CC2CC1CN2CC(=O)O)C1(C)CCN(C(=O)OC(C(F)(F)F)C(F)(F)F)CC1 (centres unmarked)
Result: ### (### is ≥75%)

Q: Now consider O=C(O)c1ccc(CN2CC3(CCN(C(=O)OC(C(F)(F)F)C(F)(F)F)CC3)C2)cc1C(F)(F)F and answer again.
Result: ### (### is ≥75%)

Q: Would you kindly repeat that for CN(Cc1ccc(C(F)(F)F)cc1C1(C(=O)O)CCCC1)C1(C)CCN(C(=O)OC(C(F)(F)F)C(F)(F)F)CC1 ?
Result: # (# is ≤25%)

Q: Next entry: CS(=O)(=O)N1CC2CN(c3cc(Cl)ccc3CN3CCN(C(=O)OC(C(F)(F)F)C(F)(F)F)CC3)CC2C1 (centres unmarked)
Result: ### (### is ≥75%)

Q: Also CN(Cc1ccc(C(F)(F)F)cc1N1CCN(CC(=O)O)CC1)C1(C)CCN(C(=O)OC(C(F)(F)F)C(F)(F)F)CC1 , if possible.
Result: ### (### is ≥75%)

Q: Can you handle CN(Cc1ccc(C(F)(F)F)cc1N1CCC(C(=O)O)CC1)C1(C)CCN(C(=O)OC(C(F)(F)F)C(F)(F)F)CC1 next?
Result: ### (### is ≥75%)

Q: Queued: CN(Cc1ccc(C(F)(F)F)cc1N1CCC(N2CCC[C@H]2C(=O)O)CC1)C1(C)CCN(C(=O)OC(C(F)(F)F)C(F)(F)F)CC1 [Example 161]
Result: ### (### is ≥75%)

Q: Next record, please: CN(Cc1ccc(C(F)(F)F)cc1OCC(=O)O)C1(C)CCN(C(=O)OC(C(F)(F)F)C(F)(F)F)CC1
Result: # (# is ≤25%)
